Data credit: paper PMC10373542

- target-system: SARS-CoV-2 WA-1 spike receptor binding domain (RBD) (SARS-CoV-2 WA-1 (S identical to …, UniProt P0DTC2))
- test: BLI
Quick reference: fold higher rate of dissociation (koff) than with WRAIR-2063 of the listed items.

- binder: "X17 monoclonal antibody (antibody, V domains shown) VH: QVQLQQSGAELARPGASVKLSCKASGYTFTFYWMQWLKQRPGQGLEWIGAIYPGDGDTRYTQRFKDKATLTADKSSSTAYIQLSSLASEDSAVYYCAGGEYDNYGFDYWGQGTTLTVSS VL: DIQMTQTTSSLSASLGDRVTISCRASQDISNYLNWYQQKPDGTVKLLIYYTSRLHSGVPSRFSGSGSGTDYSLTISNLEQEDIATYFCQQGTTLPYTFGGGTKLEIK"
  result: "~10 fold"

Could you now look at the following binder, please?
get_value(item= ION-300 monoclonal antibody (antibody, V domains shown) VH: QVQLVQSGAEVKKPGESLKISCKGSGYSFTSYWIGWVRQMPGKGLEWMGIIYPGDSDTRYSPSFQGQVTISADKSISTAYLQWSSLKASDTAMYYCARHPSPYYYGSGSYSGGFDYWGQGTLVTVSS VL: DIVMTQSPGTLSLSPGERATLSCRASQSVSSSYLAWYQQKPGQAPRLLIYGASTRATGIPARFSGSGSGTEFTLTISSLQSEDFAVYYCQQYDNWPLMHTFGQGTKLEIK , readout=fold higher rate of dissociation (koff) than with WRAIR-2063) returns ~10 fold
